- target-of-assay: glucagon receptor (UniProt P47871 26-477, limits assumed)
- Sequence (P47871 26-477 limits assumed): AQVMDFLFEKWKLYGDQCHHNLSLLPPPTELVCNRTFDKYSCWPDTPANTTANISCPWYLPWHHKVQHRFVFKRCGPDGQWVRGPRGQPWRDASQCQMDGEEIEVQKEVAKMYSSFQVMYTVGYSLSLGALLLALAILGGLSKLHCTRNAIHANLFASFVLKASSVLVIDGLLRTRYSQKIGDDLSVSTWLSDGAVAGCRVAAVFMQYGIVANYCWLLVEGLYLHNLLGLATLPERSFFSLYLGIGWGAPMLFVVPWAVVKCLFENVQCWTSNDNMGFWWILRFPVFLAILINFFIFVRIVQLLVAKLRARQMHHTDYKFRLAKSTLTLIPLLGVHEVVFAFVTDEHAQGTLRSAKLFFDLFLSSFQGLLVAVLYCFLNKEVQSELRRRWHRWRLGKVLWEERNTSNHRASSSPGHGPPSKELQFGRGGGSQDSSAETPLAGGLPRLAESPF
- measurement-description: cell-based or functional assay
Starred links: 1 amine or outer side, 2 acyl side, 3 side chain; linkers in the order of their positions; H or OH if unused. Non-standard residues stand in square brackets, D forms with d. No end group written: not given here. C(Acm) = acetamidomethyl-cysteine, CC(=O)NCSC[C@H](N[*:1])C(=O)[*:2]; Orn(Ac) = acetylornithine, CC(=O)NCCC[C@H](N[*:1])C(=O)[*:2]; Met(O) = CS(=O)CC[C@H](N)C(=O)O; Nle = CCCC[C@H](N)C(=O)O
Would you kindly list % activity for each of these binders?
Respond numerically; units are % and should not be typed.

Input: Would you kindly share the measured % activity for HS[Orn(Ac)]GTFTSDYSKYLDTRRAAEFVAWL[Nle]DE [Peptide J backbone, Orn(Ac) at position 3 (SEQ ID NO: 599)] ?
Output: 7

Input: Consider next the binder HS[C(Acm)]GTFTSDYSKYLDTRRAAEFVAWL[Nle]DE [Peptide J backbone, C(Acm) at position 3 (SEQ ID NO: 594)] in the same way.
Output: 33

Input: Try this binder next: HS[Met(O)]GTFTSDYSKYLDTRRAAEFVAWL[Nle]DE [Peptide J backbone, M(O) at position 3 (SEQ ID NO: 598)]
Output: 7
